Just for reference, patent US20230202989A1 is where these values come from.

compounds and their reported log10 IC50
Tested on: IL-1β
assay_overview: PBMC assay: inhibition of IL-1β release after LPS stimulation (MSD)
Type: cell-based
condition_notes: Homo sapiens, PBMC, 6 h, human PBMCs, 100 ng/ml LPS for 6 hrs, MSD, 96 well plates; read-out: IL1β IC50
A difference of one corresponds to tenfold IC50; all values are log10 with IC50 in µM.

[[record]]
compound = "CC(C)c1nn(CC(=O)Nc2ccc3nncn3c2)c(=O)c2ccc(OC(F)(F)F)cc12 [X-1040]"
result_value = 0.05


input: What does the data say about its log10 IC50? Entry: CCN1C[C@H](NC(=O)Cn2nc(C(C)C)c3cc(C(F)(F)F)ccc3c2=O)CC(F)(F)C1 [Final Cpd X117]
output: 0.32

input: Param item = CC(C)c1nn(CC(=O)Nc2ccc(I)nn2)c(=O)c2ccc(C(F)(F)F)cc12 [Final Cpd X154] ; retrieve measured log10 IC50.
output: 0.49
